Test system: Wolbachia pipientis
Test: Anti-Wolbachia Cell-Based Screen
Assay type: functional
Parameters: scale not given: in the data most compounds retested in dose-response had high values
Details: 5 µM
Out of some 48,000 compounds screened, about 13,000 (27%) showed an effect of 50% or more. The list shows a part of the results.
experimental-endpoint: Percent Effect (%)
// return numeric value only (unit: %, not printed)

# count of solved cases: 5
{"molecule": "Cc1ccnc(N2CCC(C(N)=O)CC2)n1", "assay-system": "Wolbachia pipientis", "Percent Effect, %": 120.1}
{"molecule": "CN1CCCN(c2nccc(-c3c[nH]nc3C3CCCCC3)n2)CC1", "assay-system": "Wolbachia pipientis", "Percent Effect, %": 25.46}
{"molecule": "c1cc(-c2c[nH]nc2C2CCCCC2)nc(N2CCCCCC2)n1", "assay-system": "Wolbachia pipientis", "Percent Effect, %": 78.4}
{"molecule": "Cc1nc(CN2CCCC(Cn3cc(CCO)nn3)C2)c2ccccn12 (configuration not stated)", "assay-system": "Wolbachia pipientis", "Percent Effect, %": -4.112}
{"molecule": "Cc1ccnc(N2CCC(OCCN3CCCCC3)C2)n1 (configuration not stated)", "assay-system": "Wolbachia pipientis", "Percent Effect, %": 14.04}

Exam item: Request - read-out Percent Effect | tested on Wolbachia pipientis | molecule CCc1c(C)nn(CC(=O)NC(C)c2n[nH]c(C)n2)c1C (configuration not stated)
Marked response: 2.562

Exam item: Request - read-out Percent Effect | tested on Wolbachia pipientis | molecule Cc1cccc(N2CC3(CCN(Cc4nccn4C)C3)CC2=O)c1.O=C(O)C(F)(F)F (configuration not stated)
Marked response: 3.528

Exam item: Request - read-out Percent Effect | tested on Wolbachia pipientis | molecule `c1cc(-c2noc(C3CCC3)n2)cc(N2CCCCC2)n1`
Marked response: -13.71

Exam item: Request - read-out Percent Effect | tested on Wolbachia pipientis | molecule `Cc1ncnc(N2CCCN(c3nc4ccccc4s3)CC2)c1C`
Marked response: -5.721

Exam item: Request - read-out Percent Effect | tested on Wolbachia pipientis | molecule Cc1ccnc(N2CCN(C3CCS(=O)(=O)C3)CC2)n1 (configuration not stated)
Marked response: 0.9659

Exam item: Request - read-out Percent Effect | tested on Wolbachia pipientis | molecule `c1cc(-c2cn3nccc3nc2C2CCCCC2)nc(N2CCCC2)n1`
Marked response: 96.94

Exam item: Request - read-out Percent Effect | tested on Wolbachia pipientis | molecule `Cc1nc[nH]c1CN1C[C@@H]2CC[C@H](C1)N(C(=O)CCc1cnn(C)c1)C2`
Marked response: -6.684

* * *

Test system: Wolbachia pipientis
Assay: Anti-Wolbachia Cell-Based Screen
Assay type: functional
Parameters: scale not given: in the data most compounds retested in dose-response had high values
Conditions: 5 µM
In all, about 48,000 compounds went through this assay and about 13,000 (27%) showed an effect of 50% or more. Some of the results follow.
Classify by measured Percent Effect: true (1) if it is equal to or exceeds 20%, false (0) if it is smaller.

Please review the entries below; each comes with its answer.
{"compound": "Cc1nc(C(=O)NCc2ccc(N3CCNC(=O)C3)c(F)c2)cs1", "cat": "false (0)"}
{"compound": "CC(C)c1ccc(C(C)NC(=O)N2CCC(n3cncn3)CC2)cc1 (stereo unspecified)", "cat": "false (0)"}
{"compound": "O=C(O)C(F)(F)F.O=C1COC2(COCCN(Cc3ccsc3)C2)CN1c1ccc(F)cc1 (stereo unspecified)", "cat": "false (0)"}
{"compound": "Cc1noc([C@@H]2C[C@H]3CN(Cc4ccc5c(c4)OCO5)C[C@H]3O2)n1.O=C(O)C(F)(F)F", "cat": "false (0)"}

Exam item: Identify whether the reported Percent Effect of the following compound is 20% or greater: N#Cc1cccc(N2CCCC3(CN(C(=O)c4ccc[nH]4)CCO3)C2)c1 (stereo unspecified)
Marked response: false (0)

Exam item: Identify whether the reported Percent Effect of the following compound is 20% or greater: CC(NC(=O)N1CCC(n2cncn2)CC1)c1ccc(F)cc1F (stereo unspecified)
Marked response: false (0)

Exam item: Identify whether the reported Percent Effect of the following compound is 20% or greater: O=C(N1CCCC1)N1CCOCC2(C1)CN(c1ccccc1)C(=O)CO2 (stereo unspecified)
Marked response: true (1)

Exam item: Identify whether the reported Percent Effect of the following compound is 20% or greater: CC(=O)N1CC(=O)N(c2ccccc2)CC12CCN(Cc1ccoc1)C2.O=C(O)C(F)(F)F (stereo unspecified)
Marked response: true (1)

Exam item: Identify whether the reported Percent Effect of the following compound is 20% or greater: CC(=O)N1CC(=O)N(c2ccccc2)CC12CCN(Cc1ccsc1)C2 (stereo unspecified)
Marked response: false (0)
